// reported inhibition of growth at 10 µM for each item listed
test system: SNB-75; experiment: Growth inhibition of human SNB75 cells at 10 uM after 48 hrs by SRB assay; type: functional; conditions: SNB-75, 48 h, read-out: GI
Supply the numeric figure in %, leaving out any unit text.

State, in one line, measured inhibition of growth at 10 µM of Cc1ccc(-c2nc3ccc(Cl)cc3c(=O)n2NC(=O)CNN)cc1 25

State, in one line, measured inhibition of growth at 10 µM of Cc1ccc(-c2nc3ccc(Cl)cc3c(=O)n2/N=C/c2ccccc2)cc1 74

State, in one line, measured inhibition of growth at 10 µM of Cc1ccc(C(=O)Nc2ccc(Cl)cc2C(=O)Nc2ccccc2)cc1 28

###

test system: Malme-3M; assay: Growth inhibition of human MALME-3M cells at 10 uM after 48 hrs by SRB assay; type: functional; conditions: read-out: GI
PROPERTY_LABEL: inhibition of growth at 10 µM

Recorded inhibition of growth at 10 µM, per entry:
[[record]]
smiles_notation = "Cc1ccc(-c2nc3ccc(Cl)cc3c(=O)n2NC(=O)CN)cc1"
property_label = "inhibition of growth at 10 µM"
result = "< 10%"

[[record]]
smiles_notation = "Cc1ccc(C(=O)Nc2ccc(Cl)cc2C(=O)Nc2ccccn2)cc1"
property_label = "inhibition of growth at 10 µM"
result = "< 10%"

[[record]]
smiles_notation = "Cc1ccc(C(=O)Nc2ccc(Cl)cc2C(=O)Nc2ccccc2)cc1"
property_label = "inhibition of growth at 10 µM"
result = "12%"


Please indicate recorded inhibition of growth at 10 µM of Cc1ccc(-c2nc3ccc(Cl)cc3c3nnnn23)cc1 measured with Malme-3M. < 10%

Please indicate recorded inhibition of growth at 10 µM of Cc1ccc(C2=Nc3ccc(Cl)cc3C3=NNCC(=O)NN23)cc1 measured with Malme-3M. < 10%

Please indicate recorded inhibition of growth at 10 µM of Cc1ccc(-c2nc3ccc(Cl)cc3c(=O)n2/N=C/c2ccccc2)cc1 measured with Malme-3M. 35%

###

test system: MDA-MB-435; experiment: Growth inhibition of human MDA-MB-435 cells at 10 uM after 48 hrs by SRB assay; format: functional; conditions: MDA-MB-435, 48 h, read-out: GI
PROPERTY_LABEL: inhibition of growth at 10 µM (%)
Supply the numeric figure in %, leaving out any unit text.

Recorded inhibition of growth at 10 µM, per entry:
[[record]]
smiles_notation = "Cc1ccc(-c2nc3ccc(Cl)cc3c(=O)n2/N=C/c2ccccc2)cc1"
numeric_value = 34

[[record]]
smiles_notation = "Cc1ccc(C(=O)Nc2ccc(Cl)cc2C(=O)Nc2ccccc2)cc1"
numeric_value = 11


// next item, inhibition of growth at 10 µM requested
State, in one line, measured inhibition of growth at 10 µM of Cc1ccc(C(=O)Nc2ccc(Cl)cc2C(=O)NCc2ccccc2)cc1 98

###

// reported inhibition of growth at 10 µM for each item listed
tested on: MDA-MB-435; assay: Growth inhibition of human MDA-MB-435 cells at 10 uM after 48 hrs by SRB assay; assay type: functional; settings: MDA-MB-435, 48 h, read-out: GI

[[record]]
smiles_notation = "Cc1ccc(C2=Nc3ccc(Cl)cc3C3=NNCC(=O)NN23)cc1"
property_label = "inhibition of growth at 10 µM"
result = "< 10%"

[[record]]
smiles_notation = "Cc1ccc(-c2nc3ccc(Cl)cc3c3nnc(S)n23)cc1"
property_label = "inhibition of growth at 10 µM"
result = "< 10%"


State, in one line, measured inhibition of growth at 10 µM of Cc1ccc(-c2nc3ccc(Cl)cc3c(=O)n2NC(=O)CNN)cc1 < 10%

State, in one line, measured inhibition of growth at 10 µM of Cc1ccc(C(=O)Nc2ccc(Cl)cc2C(=O)Nc2ccccn2)cc1 19%

State, in one line, measured inhibition of growth at 10 µM of Cc1ccc(-c2nc3ccc(Cl)cc3c3nnnn23)cc1 13%

State, in one line, measured inhibition of growth at 10 µM of Cc1ccc(-c2nc3ccc(Cl)cc3c(=O)n2NC(=O)CN)cc1 < 10%

Every entry's value here was drawn from ChEMBL document CHEMBL3259728.
